Provenance of the data: the RNAGym collection of RNA variant scans (doi:10.7554/elife.80360)

B1: HDV Ribozyme (parent)
chain: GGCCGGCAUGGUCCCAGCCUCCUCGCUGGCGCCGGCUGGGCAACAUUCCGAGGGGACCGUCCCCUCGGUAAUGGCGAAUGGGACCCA

Variants of: B1
Experiment: self-cleavage, relative activity (ratio to wild type); higher = more cleavage; co-transcriptional
Entries and their measured self-cleavage follow.
property-measured: self-cleavage

* U20C U65G | 0.145
* C19G G53U | 0.0542
* C4U C22G | 0.111
* A42C A71C | 0.332
* G25U G52U | 0.234
